Attribution: patent US20220227830A1

# Tested target: T1, full-length human GIPR with an N-terminal FLAG tag, overexpressed on HEK-293T cells (human, UniProt P48546 22-466)
# T1 sequence (looked up): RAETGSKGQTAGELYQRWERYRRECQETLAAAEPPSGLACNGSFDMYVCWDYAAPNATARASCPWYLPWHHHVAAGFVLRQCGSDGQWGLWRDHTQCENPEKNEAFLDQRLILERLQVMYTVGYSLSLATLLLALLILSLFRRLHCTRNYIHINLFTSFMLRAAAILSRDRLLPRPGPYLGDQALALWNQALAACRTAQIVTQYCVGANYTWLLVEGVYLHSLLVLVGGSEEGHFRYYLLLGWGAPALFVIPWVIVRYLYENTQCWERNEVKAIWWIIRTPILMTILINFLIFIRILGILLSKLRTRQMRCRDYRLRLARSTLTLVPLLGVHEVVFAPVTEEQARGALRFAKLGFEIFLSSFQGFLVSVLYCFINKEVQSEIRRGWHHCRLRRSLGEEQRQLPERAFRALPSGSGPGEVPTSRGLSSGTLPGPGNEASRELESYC
# Assay details: cell-based or functional assay
Starred links: 1 amine or outer side, 2 acyl side, 3 side chain; linkers in the order of their positions; H or OH if unused. Non-standard residues stand in square brackets, D forms with d. Groups on a side chain read outwards from the residue. *: point of attachment. C15 diacid = O=C(O)CCCCCCCCCCCCCC(=O)*; γGlu = O=C(O)[C@H](CCC(=O)[*:2])N[*:1]; AEEA = NCCOCCOCC(=O)O; Aib = CC(C)(N)C(=O)O
Endpoint label: Human GIPR cAMP, HEK293T EC50 (pM)
Please state the figure in pM; there is no need to write the unit.

// worked examples, Human GIPR cAMP, HEK293T EC50 included
Me-Y[Aib]EGTFISDYSIALDR[Aib]K([AEEA-AEEA-γGlu-γGlu-C15 diacid])Q[Aib]DFVNWLLAQSG-OH [Compound 163]: 0.3
YXEGTFISDYSIAXDRXAQXNFVNWLLAQSG (N-terminal Me (Me-Tyr1); Aib at 2, 17, 20; Km = Lys(R) at 14, linker printed GS (read as G5 = GGGGG), lipid C15DA (C15 diacid); C-terminal OH) [Compound 160]: 0.3

Now consider a different binder.
For the binder Me-Y[Aib]EGTFISDYSIALDR[Aib]K([AEEA-AEEA-γGlu-γGlu-C15 diacid])Q[Aib]NFVNWLLAQRG-OH [Compound 171] , give its reported Human GIPR cAMP, HEK293T EC50.
0.5
